- EXPERIMENTAL_SYSTEM: 5-HT2C edited (accession number AAF35842.1) (Homo sapiens, UniProt P28335, I156V/I160V/N158S)
- Sequence (P28335 whole entry I156V/N158S/I160V, looked up): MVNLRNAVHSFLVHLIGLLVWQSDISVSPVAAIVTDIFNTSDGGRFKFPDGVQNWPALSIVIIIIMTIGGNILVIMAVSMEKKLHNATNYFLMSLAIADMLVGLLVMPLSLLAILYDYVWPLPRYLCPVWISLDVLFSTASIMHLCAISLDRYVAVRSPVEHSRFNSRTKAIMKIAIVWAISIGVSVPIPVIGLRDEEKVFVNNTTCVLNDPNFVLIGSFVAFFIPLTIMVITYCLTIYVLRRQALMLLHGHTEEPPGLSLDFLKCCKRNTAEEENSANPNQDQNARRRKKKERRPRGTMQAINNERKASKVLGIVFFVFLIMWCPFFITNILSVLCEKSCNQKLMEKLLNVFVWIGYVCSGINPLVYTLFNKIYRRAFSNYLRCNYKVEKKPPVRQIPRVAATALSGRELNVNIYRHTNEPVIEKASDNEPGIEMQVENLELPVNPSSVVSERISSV
- ASSAY_INFO: biochemical
QUANTITY_KIND: IC50

# COMPOUND, IC50
records = [
    ("COc1cnc2c(ccn2CCN(C)C)c1 [Example 5]", "0.101 to 1 µM"),
    ("COc1cc2ccn(CC(C)(C)N(C)C)c2cn1 [Example 22]", "> 10 µM"),
    ("C[C@H](C(=O)n1ccc2cc(F)ccc21)N(C)C [Example 48]", "1 to 10 µM"),
    ("CN[C@H](C)Cn1ccc2cc(OC)ncc21 [Example 32]", "1 to 10 µM"),
    ("C[C@@H](N)Cn1ccc2cnccc21 [Example 37]", "> 10 µM"),
    ("COc1cnc2c(ccn2C[C@@H](C)N)c1 [Example 34]", "1 to 10 µM"),
    ("COc1ccc2c(ccn2C[C@@H](C)N(C)C)n1 [Example 30]", "> 10 µM"),
    ("COc1ccc2c(c1)CN(CCN(C)C)C2 [Example 10]", "1 to 10 µM"),
]

// returns reported IC50 for input COc1cnc2c(ccn2C[C@@H](C)N(C)C)c1 [Example 36]
1 to 10 µM

Entry CN(C)C(C)(C)Cn1ccc2cc(F)ccc21 [Example 14] has what IC50?
> 10 µM

Requested field: IC50. Item: C[C@H](Cn1ccc2cncnc21)N(C)C [Example 27]
> 10 µM
